Below, each of the compounds is paired with its reported pKd value.
# System Under Test: human TYK2 (JH2domain-pseudokinase) (Homo sapiens (Human))
# Assay Method Text: TYK2 JH2 Domain Binding Assay (KINOMEscan)
# Condition Parameters: Table 4, JH2 binding assay; read-out: JH2 Kd
pKd: −log10 of the molar value.

Below, 3 compounds whose answers are already recorded.
Field request: pKd | item: COc1c(Nc2cc(Nc3ccc(N4CCCCC4)cn3)nc3[nH]n(C)c(=O)c23)cccc1-c1ncn(C)n1
9.30 to 10.00

What about this compound? COc1c(Nc2cc(NC(=O)C3CC3)nc3[nH]n(C)c(=O)c23)cccc1-c1cnn(C)c1
9.00 to 9.30

Lookup COc1c(Cl)cccc1Nc1cc(NC(=O)C2CC2)nc2[nH]n(C)c(=O)c12
9.00 to 9.30

More entries:
Requested read-out: pKd. Entry: COc1c(Nc2cc(NC(=O)C3CC3)nc3[nH]n(C)c(=O)c23)cccc1-c1nc(C)nn1C
9.00 to 9.30

Let us now turn to Cc1cc(Nc2cc(Nc3ccccc3S(C)(=O)=O)c3c(=O)n(C)[nH]c3n2)ncc1F
9.30 to 10.00

Follow-up item: COc1c(Nc2cc(Nc3cc(CO)ccn3)nc3[nH]n(C)c(=O)c23)cccc1-c1ncn(C)n1
8.00 to 9.00

What do we get for Cn1[nH]c2nc(Nc3ccc(C#N)cn3)cc(Nc3ccccc3S(C)(=O)=O)c2c1=O ?
9.30 to 10.00

###

# System Under Test: human TYK2 (JH2domain-pseudokinase) (Homo sapiens (Human), UniProt P29597)
# Sequence (P29597 556-888): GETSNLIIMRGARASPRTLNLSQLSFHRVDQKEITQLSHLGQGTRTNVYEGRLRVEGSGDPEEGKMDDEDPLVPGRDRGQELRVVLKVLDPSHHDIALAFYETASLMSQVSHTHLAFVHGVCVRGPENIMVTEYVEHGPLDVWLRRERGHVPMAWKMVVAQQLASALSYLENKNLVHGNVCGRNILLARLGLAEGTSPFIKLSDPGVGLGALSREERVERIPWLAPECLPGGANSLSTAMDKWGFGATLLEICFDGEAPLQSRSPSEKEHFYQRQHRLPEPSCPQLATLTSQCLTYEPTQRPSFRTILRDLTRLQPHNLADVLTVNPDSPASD
# Assay Method Text: TYK2 JH2 Domain Binding Assay (KINOMEscan)
# Condition Parameters: Table 4, JH2 binding assay; read-out: JH2 Kd
The reader will find reported Kd values listed item by item below.

Known results for compounds:
Value lookup for Kd; key = CCc1ccc(Nc2cc(NC(=O)C3CC3)nc3[nH]n(C)c(=O)c23)c(S(C)(=O)=O)c1
0.5 to 1 nM

Quick one: CN(c1cc(C2CCC2)ccc1Nc1cc(NC(=O)[C@@H]2C[C@@H]2F)nc2[nH]n(C)c(=O)c12)S(C)(=O)=O
> 10 nM

Another compound to look at: COc1c(C#N)cccc1Nc1cc(Nc2ccc(N3CCCCC3)cn2)nc2[nH]n(C)c(=O)c12
> 10 nM

Also COc1c(Nc2cc(Nc3cc(CO)ccn3)nc3[nH]n(C)c(=O)c23)cccc1-c1nnn(C)n1 , if possible.
> 10 nM

Also check COc1c(Nc2cc(Nc3cc(C)c(F)cn3)nc3[nH]n(C)c(=O)c23)cccc1-c1ncn(C)n1
0.1 to 0.5 nM

Entry COc1c(F)cccc1Nc1cc(NC(=O)C2CC2)nc2[nH]n(C)c(=O)c12 please
0.5 to 1 nM

***
Data request, read-out Kd, for Cn1[nH]c2nc(NC(=O)[C@H]3CC3(F)F)cc(Nc3ccc(C4CC4)cc3S(C)(=O)=O)c2c1=O
0.1 to 0.5 nM

###

# System Under Test: human TYK2 (JH2domain-pseudokinase) (Homo sapiens (Human), UniProt P29597)
# Assay Method Text: TYK2 JH2 Domain Binding Assay (KINOMEscan)
# Condition Parameters: Table 4, JH2 binding assay; read-out: JH2 Kd
pKd: −log10 of the molar value.
Parameter pKd: see the listing below.

// returns reported pKd for input COc1c(Nc2cc(N)nc3[nH]n(C)c(=O)c23)cccc1C(=O)O
< 8.00

Then this molecule: COCc1ccc(Nc2cc(Nc3cccc(C#N)n3)nc3[nH]n(C)c(=O)c23)c(OC)c1
9.30 to 10.00

Also check Cc1ccc(Nc2cc(Nc3ccccc3S(C)(=O)=O)c3c(=O)n(C)[nH]c3n2)nn1
9.30 to 10.00

Would you kindly repeat that for COc1cc(CO)ccc1Nc1cc(NC(=O)C2CC2)nc2[nH]n(C)c(=O)c12 ?
8.00 to 9.00

Queued: Cc1ccc(Nc2cc(Nc3ccc(Cl)cc3S(C)(=O)=O)c3c(=O)n(C)[nH]c3n2)nc1C(F)(F)F
9.00 to 9.30

Same question, COc1cc(C2CC2)ccc1Nc1cc(NC(=O)C2CC2)nc2[nH]n(C)c(=O)c12 this time
8.00 to 9.00

Also Cc1ncc(Nc2cc(Nc3ccc(C4CC4)cc3S(C)(=O)=O)c3c(=O)n(C)[nH]c3n2)nc1C ?
9.00 to 9.30

Do the same for Cn1[nH]c2nc(Nc3cccc(C#N)n3)cc(Nc3ccccc3S(C)(=O)=O)c2c1=O please
> 10.00

And the next one, COc1c(Nc2cc(Nc3cc(C)nc(C)n3)nc3[nH]n(C)c(=O)c23)cccc1-c1nnn(C)n1 ?
> 10.00

Then what about the molecule COCc1ccc(Nc2cc(Nc3ccc(C)c(C(F)(F)F)n3)nc3[nH]n(C)c(=O)c23)c(OC)c1 ?
8.00 to 9.00

Continuing:
Looking for the measured pKd of COc1c(Nc2cc(NC(=O)C3CC3)nc3[nH]n(C)c(=O)c23)cccc1-c1nc(C)n(C)n1 , can you help?
9.30 to 10.00

Also COc1c(Nc2cc(Nc3ccc(N4CCOCC4)cn3)nc3[nH]n(C)c(=O)c23)cccc1-c1ncn(C)n1 ?
9.30 to 10.00

Further, for COc1c(Nc2cc(NC(=O)C3CC3)nc3[nH]n(C)c(=O)c23)ccc(C(=O)N2CCCC2)c1F ?
8.00 to 9.00

Another molecule: COc1c(Cl)cccc1Nc1cc(Nc2cnc(C)c(C#N)n2)nc2[nH]n(C)c(=O)c12
8.00 to 9.00

Try COc1c(Cl)cccc1Nc1cc(Nc2ccc(C(F)F)c(C#N)n2)nc2[nH]n(C)c(=O)c12 next.
< 8.00
